- target-system: T1, chromodomain of CDYL2 (human, UniProt Q8N8U2 1-75)
- T1 sequence (looked up): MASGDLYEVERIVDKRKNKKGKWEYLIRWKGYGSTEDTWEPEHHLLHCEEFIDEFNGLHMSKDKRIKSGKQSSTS
- assay-protocol: AlphaScreen or HTRF
pIC50: −log10 of the molar value. Ends that are not written are not given here. diethyl = not defined here
measure: pIC50

Worked examples, 2 binders total:
{"columns": ["binder", "numeric-value"],
 "data": [
  ["{4‑tBu‑Bz}-FALK(diethyl)S (reading uncertain; also: C-terminal carbonyl removed entirely (R3 = -H)) [compound 46]", 6.39],
  ["{4‑tBu‑Bz}-FALK(diethyl)S-OH (reading uncertain) [compound 44]", 6.13]
]}

1. {4‑tBu‑Bz}-F(CH2NHBoc)ALK(diethyl)S-OMe (reading uncertain) [compound 48]
2. {4‑tBu‑Bz}-F(CH2NH2)ALK(diethyl)S-OMe (reading uncertain) [compound 47]
3. {4‑tBu‑Bz}-FVLK(diethyl)S-OMe (reading uncertain) [compound 43]
4. {4‑tBu‑Bz}-FALK(diethyl)S-NMe2 (reading uncertain) [compound 45]
Ranking field: pIC50; order: falling. Could you list the labels in the order requested?
2, 1, 4, 3
